The measured values listed here are drawn from ChEMBL document CHEMBL4406820.

- Test system: Klebsiella pneumoniae
- assay.text: Antimicrobial activity against Klebsiella pneumoniae ATCC 700603 incubated for 18 hrs by microbroth dilution assay
- Assay type: functional
- stated.conditions: ATCC 700603, 18 h
MIC overview
endpoint.name: MIC

compound	target.under.test	result
Cc1ccc(C(P(=O)(O)O)S(=O)(=O)CC(=O)N(C)O)cc1 (centres undefined)	Klebsiella pneumoniae	> 100 µM
COc1cc(OC)cc(C(SCC(=O)NO)P(=O)(O)O)c1 (racemic)	Klebsiella pneumoniae	> 100 µM
Cc1ccc(C(SCC(=O)NO)P(=O)(O)O)cc1 (racemic)	Klebsiella pneumoniae	> 100 µM
CN(O)C(=O)CS(=O)(=O)C(c1cc(F)cc(F)c1)P(=O)(O)O (centres undefined)	Klebsiella pneumoniae	> 100 µM
